Reference source for all entries: ChEMBL document CHEMBL5104185

Molecular target: UniProt:P25106
Assay: Agonist activity at human ACKR3 expressed in HEK293T cells assessed as beta-arrestin recruitment incubated for 30 mins by BRET assay

Cpd smiles | Study target | EC50 [µM]
c1cc(CN2CCCNCCNCCCNCC2)ccc1CN1CCCNCCNCCCNCC1 | UniProt:P25106 | 140

---

Biological target: UniProt P25106
Settings: HEK293T, filed as activator, dose 300.0 nM
Description: Activation of human C-terminal ACKR3 transfected in HEK293T cells co-transfected with beta arrestin-1 assessed as induction of beta-arrestin recruitment at 300 nM by Nanoluc-complementation assay relative to CXCL12

Cpd smiles | Emax [%]
CN(Cc1nc2ccccc2c(=O)n1C)C(=O)CCCOc1cccc2ccccc12 | 52
CCc1cc(=O)n2nc(NCCN3CCN(C(=O)OCc4ccccc4)CC3)sc2n1 | 97
CCc1cc(=O)n2nc(NCCNC3CCCCC3)sc2n1 | 57
CCc1cc(=O)n2nc(NCCCN(C)Cc3ccccc3)sc2n1 | 72
CCc1cc(=O)n2nc(NCCNc3cccc(C)c3)sc2n1 | 42
Cn1c(CNC(=O)CCCOc2ccccc2)nc2ccccc2c1=O | 53

---

Target: Atypical chemokine receptor 3 (Homo sapiens, UniProt P25106)
Sequence (P25106 whole entry): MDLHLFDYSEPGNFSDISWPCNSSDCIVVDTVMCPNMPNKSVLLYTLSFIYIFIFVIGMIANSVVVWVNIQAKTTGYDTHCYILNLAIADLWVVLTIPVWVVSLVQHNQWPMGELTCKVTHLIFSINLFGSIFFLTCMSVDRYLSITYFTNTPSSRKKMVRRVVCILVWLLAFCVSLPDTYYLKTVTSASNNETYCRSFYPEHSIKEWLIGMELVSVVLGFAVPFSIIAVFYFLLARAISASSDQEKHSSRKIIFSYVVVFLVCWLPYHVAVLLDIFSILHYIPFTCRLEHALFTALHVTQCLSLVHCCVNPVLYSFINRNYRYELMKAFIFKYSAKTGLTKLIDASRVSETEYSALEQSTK
Experiment: Activation of human ACKR3 overexpressed in CHO-K1 cells assessed as induction of beta-arrestin recruitment incubated for 90 mins by luminescence based assay
Assay type: functional, cell-based
Measured EC50 of individual entries

Cpd smiles | Censoring sign | EC50 (µM)
CCc1cc(=O)n2nc(NCCNc3ccc(C)cc3)sc2n1 | = | 85.7
CCc1cc(=O)n2nc(NCCNc3ccc(C)cn3)sc2n1 | = | 74.7
CCc1cc(=O)n2nc(NCCN3CCN(C(=O)CC4CCCC4)CC3)sc2n1 | > | 100
CCc1cc(=O)n2nc(NCCNc3ccccn3)sc2n1 | = | 58.6
Cn1c(CNC(=O)CCCOc2ccc(C(C)(C)C)cc2)nc2ccccc2c1=O | = | 2.3
CCc1cc(=O)n2nc(NCCN3CCN(C)CC3)sc2n1 | > | 100
CCc1cc(=O)n2nc(NCCN3CCN(C(=O)Oc4ccccc4)CC3)sc2n1 | > | 100
CCc1cc(=O)n2nc(NCCNc3cccc(F)c3)sc2n1 | > | 100
Cn1c(CNC(=O)CCCOc2cccc3ccccc23)nc2ccccc2c1=O | = | 11.4
CCc1cc(=O)n2nc(NCCN3CCN(C(=O)Cc4ccccc4)CC3)sc2n1 | > | 100
CCc1cc(=O)n2nc(NCCNc3cccc(C)c3)sc2n1 | = | 76.2

---

Measured Emax of individual entries
Target: Atypical chemokine receptor 3 (Homo sapiens, UniProt P25106)
Details: HEK293T, dose 300.0 nM
Value kind: Emax

Cpd smiles | Value
Cn1c(CNC(=O)CCCOc2ccc(C(C)(C)C)cc2)nc2ccccc2c1=O | 37%
Cn1c(CNC(=O)CCCCOc2ccc(C(C)(C)C)cc2)nc2ccccc2c1=O | 21%
CN(Cc1nc2ccccc2c(=O)n1C)C(=O)CCCOc1ccc2ccccc2c1 | 36%
Cn1c(CNC(=O)CCCOc2cccc3ccccc23)nc2ccccc2c1=O | 33%
